test: qHTS for Inhibitors of human tyrosyl-DNA phosphodiesterase 1 (TDP1): qHTS in cells in presence of CPT; conditions: chicken DT40 Tdp1-/-;hTDP1 cells + 20 nM CPT, ATP luminescence, 48 h; series mostly up to 46.2 µM; also: nearly all actives have a fitted effect of over 55% in size
The whole screen tested about 420,000 compounds, of which about 50,000 (12%) were called active. Not shown: some 26% with an inconclusive outcome. Calls follow the shape of the dose curve; as a rule, active = well fitted inhibition curve with a large enough effect; inconclusive = small, poorly fitted or top-dose-only effect; inactive = flat fitted curve, though single readings scatter. This is one part of a sample in which actives are shown more often than they occur.
Labels: class 1 for active, class 0 for inactive

{"columns": ["Compound", "Label value"],
 "data": [
  ["Cc1ccc2c(=O)cc(C(=O)NCCc3ccc(S(N)(=O)=O)cc3)oc2c1C", "class 0"],
  ["CC(=O)N1CCN(S(=O)(=O)c2cccc(C(=O)NC3CCC(C)CC3)c2)CC1 (configuration not stated)", "class 0"],
  ["O=S1(=O)CCN(Cc2ccccc2)CC1", "class 0"],
  ["COc1ccccc1C(=O)NNC(=O)CCN1C(=O)/C(=C\\c2ccccc2)SC1=S", "class 0"],
  ["COc1ccc(CCN2CNc3c(c(=O)n(C)c(=O)n3C)C2)cc1OC", "class 0"],
  ["CN1CCN(S(=O)(=O)c2cccc(C(=O)O)c2)CC1", "class 0"],
  ["COc1ccc(CCn2cc3c(c2-c2ccc(Br)cc2)c(=O)n(C)c(=O)n3C)cc1OC", "class 1"],
  ["COc1ccc(CCNS(=O)(=O)c2ccc(Cl)s2)cc1OC", "class 0"],
  ["O=C(CN1CCN(c2ncc(C(F)(F)F)cc2Cl)CC1)Nc1ccc2c(c1)OCO2", "class 0"],
  ["CCOc1ccc(CCNC(=O)CN2C(=O)NC3(CCc4ccccc43)C2=O)cc1OCC (configuration not stated)", "class 0"],
  ["CC1Cc2ccccc2N1S(=O)(=O)c1c(N)n(C)c(=O)n(C)c1=O (configuration not stated)", "class 0"],
  ["Cc1cc(-c2ccc(C)c(S(=O)(=O)N3c4ccccc4CC3C)c2)on1 (configuration not stated)", "class 1"],
  ["Cc1ccc(CN2CC(C(=O)NNC(=O)Cn3ccc(C(F)(F)F)n3)CC2=O)cc1 (configuration not stated)", "class 0"],
  ["CCOC(=O)c1sc(NC(=O)/C=C/c2ccc(C(C)C)cc2)c(C(=O)OCC)c1C", "class 0"],
  ["CC1(C(=O)O)CCC(C(=O)Nc2ccc(Cl)c(Cl)c2)C1(C)C (configuration not stated)", "class 0"],
  ["NC1=NC2(CCCCC2)N(c2ccc(F)cc2F)C(N)=N1", "class 0"],
  ["COc1ccc(CCN2C(=O)C(C)=C(C)C2=O)cc1OC", "class 0"],
  ["Cc1ccc2c(c1)N(CCCC(=O)NCc1cccnc1)C(=O)CO2", "class 0"],
  ["Cc1cc(-c2ccc(C)c(S(=O)(=O)Nc3ccc(S(N)(=O)=O)cc3)c2)on1", "class 0"],
  ["CCOC(=O)Cn1nnnc1C", "class 0"],
  ["Cc1ccc(S(=O)(=O)N2CCCCC2)cc1NC(=O)CCNC(=O)c1ccccc1", "class 0"],
  ["O=C(NCC1(N2CCCCC2)CCCCC1)c1ccc(NS(=O)(=O)c2ccc(F)cc2)cc1", "class 0"]
]}
